Hey, just so you know, these numbers are from PubChem BioAssay (NCI).

Test system: UACC-257 melanoma
Test: NCI-60 one-dose screen, 48 h
Settings: 10 µM unless noted
The panel holds about 83,000 compounds, 20% with a hit somewhere; the sample as a whole holds those more often. The source made the active and inactive calls. Rule for the calls: active = growth percent below 10; inactive = the rest.
Hi! Could you answer with just one of these? yes (active), no (inactive)

c1ccc(-c2n(Cc3ccc4ccccc4n3)cc[n+]2Cc2ccc3ccccc3n2)cc1 :: yes
COc1ccc2[nH]c(-c3ccccc3)c(C=C(C#N)C#N)c2c1 :: no
COC(=O)/C=C/c1cc(OC)c2c(c1)[C@@H](C(=O)OC)[C@H](c1ccc(OC)c(OC)c1)O2 :: no
C#CCOC(=O)[C@]1(C)CCC[C@]2(C)[C@H]3C[C@H]4C(C(C)C)=C[C@]3(CC[C@H]21)[C@@H]1C(=O)CCC(=O)[C@@H]14 :: no
COc1ccc2c(c1)C1(C(=O)N2)C(C#N)=C(c2ccccc2)Nc2c1c(-c1ccccc1)nn2-c1ccccc1 (stereo not drawn) :: no

Hi, sorry to bother you, what did the test record for C=C(C)[C@@H]1CCC=C2CC[C@]3(C)[C@H](CC[C@@H]4[C@@]5(C)CCCNC(C)(C)[C@@H]5CC[C@]43C)[C@H]21 ?
no

Hi, sorry to bother you, what did the test record for O=c1cc(/C=N\Nc2nc(-c3ccc(Cl)cc3Cl)cs2)c2cc(Cl)ccc2o1 ?
no

Hi, sorry to bother you, what did the test record for NS(=O)(=O)c1ccc(-n2ncc(NC(=O)Nc3ccc(S(=O)(=O)Nc4nccs4)cc3)c2-c2ccccc2)cc1 ?
no
